All figures here come from patent US9919998B2.

# Test system: Vero E6 ATCC CRL1586 cells
# ASSAY COMMENT: Mammalian-cell cytotoxicity, minimal cytotoxic concentration (CellTiter96)
# Format: cell-based
Classify: 1 when MCC mammalian cells Vero E6 ATCC CRL1586 is strictly less than 30 µg/mL; 0 when MCC mammalian cells Vero E6 ATCC CRL1586 is not.

- COMPOUND: "Cc1ccc(Br)cc1NC(=O)C(Cc1ccc(O)cc1)NC(=O)c1ccccc1 (stereo not shown)"
  CLASSIFICATION: 0
- COMPOUND: "CCc1cccc(NC(=O)C(Cc2ccccc2)NC(=O)c2ccccc2)c1C (stereo not shown)"
  CLASSIFICATION: 0
- COMPOUND: "CCc1cccc(C(=O)NC(Cc2ccccc2)C(=O)Nc2ccccc2C)c1 (stereo not shown)"
  CLASSIFICATION: 0
- COMPOUND: "Cn1nnc2cccc(NC(=O)C(Cc3ccccc3)NC(=O)c3ccccc3)c21 (stereo not shown)"
  CLASSIFICATION: 0
- COMPOUND: "COc1ccc(F)cc1NC(=O)C(Cc1ccccc1)NC(=O)c1ccccc1 (stereo not shown)"
  CLASSIFICATION: 0

I wonder whether O=C(NC(Cc1ccccc1)C(=O)Nc1ccccc1C(F)F)c1ccccc1 (stereo not shown) has MCC mammalian cells Vero E6 ATCC CRL1586 below 30 µg/mL. Can you tell?
0

Next entry: O=C(NC(Cc1ccccc1)C(=O)Nc1ccccc1-n1cnnn1)c1ccccc1 (stereo not shown)
0

Next entry: Cc1ncccc1NC(=O)C(Cc1ccccc1)NC(=O)c1ccccc1 (stereo not shown)
0

Next entry: O=C(NC(Cc1ccccc1)C(=O)Nc1cccc2cn[nH]c12)c1ccccc1 (stereo not shown)
1

Next entry: COc1ccccc1NC(=O)C(Cc1ccccc1)NC(=O)c1ccccc1 (stereo not shown)
0

Next entry: Cc1cccc(NC(=O)C(Cc2ccccc2)NC(=O)c2ccccc2)c1C (stereo not shown)
1

Next entry: Cc1ccc(F)cc1NC(=O)C(Cc1ccccc1)NC(=O)c1ccccc1 (stereo not shown)
1

Next entry: COc1ccc(F)cc1NC(=O)C(Cc1ccc(O)cc1)NC(=O)c1cccs1 (stereo not shown)
0

Next entry: CC(=O)N1CCCN(c2ccc(F)cc2NC(=O)C(Cc2ccccc2)NC(=O)c2ccccc2F)CC1 (stereo not shown)
0
